SYSTEM NAME: N-formyl peptide receptor 2 (Homo sapiens)
RUN DESCRIPTION: inhibition of ligand-evoked FPRL1 calcium flux – cell-based, calcium response, confirmation (AID 698)
CONDITION SUMMARY: FPRL1-expressing cells, ligand-induced calcium response, antagonist mode; active compounds read high; concentration not given here
Measured inhibition accompanies every entry in the list below.
OUTCOME MEASURE: inhibition (%)

| SAMPLE SMILES | UNITS LABEL | NUMERIC VALUE |
| --- | --- | --- |
| COc1ccc(-c2cn3cccnc3n2)cc1NC(=O)C1CC1 | % | 98.1 |
| CC(=O)OCCNc1cc(N2CCN(C)CC2)c2noc3c2c1C(=O)c1ccccc1-3 | % | 93.4 |
| COc1ccc(-c2cc(C(F)(F)F)nc(N3CCN(Cc4ccccc4)CC3)n2)cc1OC | % | 96.3 |
| CCOC(=O)CSc1nnc(CNC(=O)c2cc(OCC)c(OCC)c(OCC)c2)n1C | % | 0 |
| Nc1ccc(Nc2ccccc2N)cc1 | % | 69.5 |
| O=C(O)CCCNc1cc(N2CCC3(CC2)OCCO3)c2noc3c2c1C(=O)c1ccccc1-3 | % | 0 |
| CCOc1cc(C(=O)NCc2nnc(SCC(=O)OC)n2C)cc(OCC)c1OCC | % | 0 |
